# Tested on: HCV replication
# TEST: Replicon Assay (Huh-lucubineo-ET cells, luciferase readout)
# Format: cell-based
# MEASUREMENT_SETUP: Hepatitis C virus; ET (Huh-lucubineo-ET) HCV replicon cell line; luciferase activity 48-72 hours after compound addition; 6 dilutions
Mark each entry Satisfied if its EC50 sits below 200 nM, and Not satisfied for all others.

// query I'd appreciate it if you could check whether COc1ccc(-c2ccc(Cn3cc4nc(-c5cccc(F)c5F)nc-4cn3)cc2[N+](=O)[O-])c(C(F)(F)F)c1 has EC50 smaller than 200 nM.
// result Not satisfied

// query Record: COc1ccc(-c2ccc(Cn3cc4nc(-c5cccc(F)c5F)nc-4cn3)c(F)c2)c(C(F)(F)F)c1
// result Satisfied

// query Same thing, different molecule: Fc1cccc(-c2nc3cnn(Cc4ccc(-c5ccc(OCCn6ccnc6)cc5C(F)(F)F)nn4)cc-3n2)c1F
// result Not satisfied

// query Try this molecule too: CCOc1ccc(-c2ccc(Cn3cc4nc(-c5ccccc5F)nc-4cn3)cn2)c(C(F)(F)F)c1
// result Satisfied

// query And the next one, O=C(Nc1ccccc1)c1ccc(Cn2cc3nc(-c4cccc(F)c4F)nc-3cn2)cc1 ?
// result Not satisfied

// query Then what about the molecule CC(C)CCOc1ccc(-c2ccc(Cn3cc4nc(-c5cccc(F)c5F)nc-4cn3)nn2)c(C(F)(F)F)c1 ?
// result Not satisfied

// query Nc1nc(-c2ccc(C(F)(F)F)cc2C(F)(F)F)ccc1Cn1cc2nc(-c3cccc(F)c3F)nc-2cn1 ?
// result Satisfied

// query Proceed to Fc1cccc(-c2nc3cnn(Cc4ccc(N5CCCCC5)cc4)cc-3n2)c1F
// result Not satisfied

// query Next: Fc1cccc(-c2nc3cnn(Cc4ccc(Oc5ccc(C(F)(F)F)cc5C(F)(F)F)cc4)cc-3n2)c1F
// result Not satisfied

// query Also COc1ccc(NC(=O)c2ccc(Cn3cc4nc(-c5cccc(F)c5F)nc-4cn3)cc2)cc1 ?
// result Not satisfied

// query Also Fc1cccc(-c2nc3cnn(Cc4ccc5sccc5c4)cc-3n2)c1F , if possible.
// result Not satisfied

// query Same thing, different molecule: CCCOc1ccc(-c2cnc(Cn3cc4nc(-c5cccc(F)c5F)nc-4cn3)cn2)c(C(F)(F)F)c1
// result Satisfied

// query Can you handle CCCOc1ccc(-c2ncc(Cn3cc4nc(-c5cccc(F)c5F)nc-4cn3)cn2)c(C(F)(F)F)c1 next?
// result Satisfied

// query Do the same for Fc1cccc(-c2nc3cnn(Cc4cccc5ccccc45)cc-3n2)c1F please
// result Not satisfied

// query Fc1cccc(-c2nc3cnn(Cc4ccc(-c5ccc(C(F)(F)F)cc5C(F)(F)F)cn4)cc-3n2)c1F ?
// result Satisfied

Origin of measurements: patent US20090226398A1
